Origin of values: paper PMC8053501

# Drug concentration, time course annotations
# APPLIED CONDITIONS: normal mice, oral gavage, 3mg/kg; Liver; 12h
Kindly provide the number alone.

Past entries and their recorded results:
{"MOLECULE": "Cn1c(=O)cc(N2CCC[C@@H](N)C2)n(Cc2ccccc2C#N)c1=O", "Drug concentration, time course": 300}
{"MOLECULE": "CC1=C(C(=O)O)N2C(=O)[C@@H](NC(=O)[C@H](N)c3ccccc3)[C@H]2SC1", "Drug concentration, time course": 1650}
{"MOLECULE": "CC1(C)S[C@@H]2[C@H](NC(=O)[C@H](N)c3ccc(O)cc3)C(=O)N2[C@H]1C(=O)O", "Drug concentration, time course": 200}
{"MOLECULE": "N#C[C@@H]1CCCN1C(=O)CNC12CC3CC(CC(O)(C3)C1)C2", "Drug concentration, time course": 300}
{"MOLECULE": "Cc1ccc(-c2cc(C(F)(F)F)nn2-c2ccc(S(N)(=O)=O)cc2)cc1", "Drug concentration, time course": 2300}
{"MOLECULE": "CC(C)Cc1ccc(C(C)C(=O)O)cc1 (centres unmarked)", "Drug concentration, time course": 600}
{"MOLECULE": "COc1ccc2c(c1)c(CC(=O)O)c(C)n2C(=O)c1ccc(Cl)cc1", "Drug concentration, time course": 1200}

Drug concentration, time course in this record for Cc1ccc([C@@H]2O[C@H](CO)[C@@H](O)[C@H](O)[C@H]2O)cc1Cc1ccc(-c2ccc(F)cc2)s1 : 100
